assay: soluble on expression in E. coli; label from the status in PepcDB or PDB records
measured-endpoint: soluble on expression in E. coli

[[record]]
sequence = "MTEAEDFAQLLQKLQNASPALPEGTSSTPTPSSSTGLLPNGKKTKGRVKIKMEYINNKLRRYTTFSKRKTGIMKKAFELSTLTGTQVMLLVASETGHVYTYATPKLQPMISSDTGKAMIQSCLNAPGGDGSDVQPSRTEFTFDSGNGGNGMRKRKMLSDVMSAESSNNSPSMPNFTPFLAPSMAPLFSTFGEDDYNNDESGDDSDSEEASSDIKEEYQGSPTMVKQETTEIDSVTASLQQRIKEAMRQAASNKQAIKKAKITPPSSNMNNAAFLNPFLLQGGANASNLLATAARKGDDAGSLTSNPFLSMGLNLQQLIESAAIASNE"
observed_measurement = "not soluble"

[[record]]
sequence = "MGSIWELDFYSRPILDENQKKVWEVVICESPLDIRTKTDSLFRYAQYCPSTEVNSAWLRTAIQEAISKAGKAPIKIRFFRRQMNNMIVKACEDAGIPALPSRRTLALNQWLKQRMEEVYPQEPGYQGVTTPSVRLDSPLPQRLPDALEGQQWVFVSLSAADLAEMPDWEIGFSEAFPLDFVQVSPETRIPGVLIFSPRALPIAGWMSGLELAFLRVDTSQGMRLVLETGATESWILANIKNPTTVQEARGFEEAKQKANGVHFIGVQSNPEAESFAGFWLLQELGVLEHHHHHH"
observed_measurement = "not soluble"


###

assay: soluble on expression in E. coli; label from the status in PepcDB or PDB records
measured-endpoint: soluble on expression in E. coli

[[record]]
sequence = "MNIMLTGATGHLGTHITNQAIANHIDHFHIGVRNVEKVPDDWRGKVSVRQLDYFNQESMVEAFKGMDTVVFIPSIIHPSFKRIPEVENLVYAAKQSGVAHIIFIGYYADQHNNPFHMSPYFGYASRLLSTSGIDYTYVRMAMYMDPLKPYLPELMNMHKLIYPAGDGRINYITRNDIARGVIAIIKNPDTWGKRYLLSGYSYDMKELAAILSEASGTEIKYEPVSLETFAEMYDEPKGFGALLASMYHAGARGLLDQESNDFKQLVNDQPQTLQSFLQENILEHHHHHH"
observed_measurement = "soluble"

[[record]]
sequence = "MSDQMRIPCVIMRAGTSKGIFLKGNDLPADQELRDKVILRIFGSPDVRQIDGLAGADPLTSKLAIIGPSTHPDADVDYTFAQVSITDAVVDYNGNCGNISAGVGPFAIDESFVKAVEPMTRVCIHNTNTGKLLYAEVEVEDGKAKVSGDCKIDGVPGTNAPELMDFSDTAGAATGKVLPTGNVVDVLSTSKGDIDVSIVDVANPCIFVHAKDVNMTGTETPDVINGNADLLAYLEEIRAKCCVKIGMAATEKEASEKSPAFPMIAFVTKPEDYVDFSTGNTISGDDVDLVSRLMFMQVLHKTYAGTATACTGSAARIPGTIVNQVLRDTGDEDTVRIGHPAGVIPVVSIVKDGKVEKAALIRTARRIMEGYVYVEKAKLVGSAWSHPQFEK"
observed_measurement = "soluble"


###

assay: soluble on expression in E. coli; label from the status in PepcDB or PDB records
measured-endpoint: soluble on expression in E. coli

[[record]]
sequence = "MTVVDAHLHVWDPEQAAYEWLGPAMAPVDRAMRFHDALPALRTAGVGAAVLVQAADNDEDTDLMLATAARHPEVVGVVAWVPLDDPGRARARLAALRRDPHVVGVRTLLHERSDPDWVLGPDADAGLALLAEAGLPFDYSTTSPAALRHLAELSARHPALRLVVDHLGKPPVGGGREDRAEWHRLIAAAAKHPGVHAKLSGLYSASGALDAWTTDEVRPFVEDALELFGPERLMYGGDWPISLLAGGYARTWEAMCELLAPLAPDDRAAVLGGTATRFYRLDPALLNTAHHAAVLEHHHHHH"
observed_measurement = "not soluble"

[[record]]
sequence = "MGSDKIHHHHHHMSMVSSGNYAEVEKVLTEYPYIAELADHLRDQKMKVIENLDSYVSLTIKNVERLGGHAYLAKDKEEARKIAGDLVGDNKTVVFSKTNVAYEIGLREYLESKHNEVWETDLGEYLIQISKGWPTHIVAPALGMTREDAAKAVKKIDPSINENSTIEDVVAAVRKFLMSKYVKADVGITGANAVAADSGAIALVENEGNIRIDTVMPQTHISITGIDKIVPTLRDALDEVMVQSAYAGLFPPTYINVTAGPSSTADIELRRVSPATGPKNFHLILLDDGRMDASKDEGLKEALLCIKCGRCYFSCPIYRVLGKEWVSTKSPYNGPTGVMWNYITNKDPWPASYCVHSGGCKEVCPMRINIPEVIKYIKYLGSKSL"
observed_measurement = "not soluble"

